molecular target: Calcium/calmodulin-dependent protein kinase kinase 2 (Homo sapiens, UniProt Q96RR4); also: in the data inactive means no Kd found up to 30 µM
Sequence (Q96RR4 whole entry): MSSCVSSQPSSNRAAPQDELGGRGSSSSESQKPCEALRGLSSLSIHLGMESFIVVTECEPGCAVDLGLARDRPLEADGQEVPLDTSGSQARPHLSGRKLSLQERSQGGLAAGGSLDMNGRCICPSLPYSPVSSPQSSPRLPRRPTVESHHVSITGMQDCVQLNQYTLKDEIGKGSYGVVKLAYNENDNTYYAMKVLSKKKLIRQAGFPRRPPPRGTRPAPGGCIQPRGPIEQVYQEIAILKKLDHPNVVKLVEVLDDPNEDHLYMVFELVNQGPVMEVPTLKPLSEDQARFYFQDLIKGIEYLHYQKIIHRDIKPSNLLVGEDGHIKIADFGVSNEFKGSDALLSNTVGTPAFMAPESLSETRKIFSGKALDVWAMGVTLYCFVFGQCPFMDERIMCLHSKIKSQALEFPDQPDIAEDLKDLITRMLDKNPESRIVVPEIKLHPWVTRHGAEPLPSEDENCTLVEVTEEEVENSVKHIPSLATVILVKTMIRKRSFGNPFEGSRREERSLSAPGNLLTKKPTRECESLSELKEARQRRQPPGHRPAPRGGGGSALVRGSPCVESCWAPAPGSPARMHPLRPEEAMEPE
Active and inactive are the calls of the source.
Thanks in advance; please answer with one of these: 1 (yes) for active, 0 (no) for inactive

Here are 3 compounds together with their reported answers.
COC(=O)[C@@]1(O)C[C@H]2O[C@]1(C)n1c3ccccc3c3c4c(c5c6ccccc6n2c5c31)C(=O)NC4 [K-252A] = 1 (yes)
CCc1cnn2c(NCc3ccc[n+]([O-])c3)cc(N3CCCC[C@H]3CCO)nc12 = 0 (no)
CCN1CCN(Cc2ccc(-c3cc4c(N[C@H](C)c5ccccc5)ncnc4[nH]3)cc2)CC1 = 0 (no)

Hi, do you know how CNC(=O)CN1CCC(Oc2cc3c(Nc4cccc(Cl)c4F)ncnc3cc2OC)CC1 came out in this test?
0 (no)

Hi, do you know how Cn1ncc(Cl)c1-c1cc(C(=O)N[C@H](CN)Cc2cccc(F)c2)sc1Cl came out in this test?
0 (no)

Hi, do you know how CN(C)C(=O)c1cc2cnc(Nc3ccc(N4CCNCC4)cn3)nc2n1C1CCCC1 came out in this test?
0 (no)

Hi, do you know how CC(C)Nc1cc(-c2c[nH]c(C(=O)N[C@H](CO)c3cccc(Cl)c3)c2)c(Cl)cn1 came out in this test?
0 (no)

Hi, do you know how CN1CC[C@@H](c2c(O)cc(O)c3c(=O)cc(-c4ccccc4Cl)oc23)[C@@H]1CO came out in this test?
0 (no)

Hi, do you know how COc1cc2nccc(Oc3ccc(NC(=O)Nc4cc(C)on4)c(Cl)c3)c2cc1OC came out in this test?
0 (no)

Hi, do you know how C[C@@H](c1ccc2nccn2c1)n1nnc2ncc(-c3cnn(C)c3)nc21 came out in this test?
0 (no)

Hi, do you know how Cc1c(F)cc(C(=O)NC2CC2)cc1-c1ccc(C(=O)NCC(C)(C)C)cn1 came out in this test?
0 (no)

Hi, do you know how O=C(c1ccc(F)c(F)c1Nc1ccc(I)cc1F)N1CC(O)([C@@H]2CCCCN2)C1 came out in this test?
0 (no)

Hi, do you know how CC[C@H](Nc1ncnc2[nH]cnc12)c1nc2cccc(F)c2c(=O)n1-c1ccccc1 came out in this test?
0 (no)

Hi, do you know how Cc1cc(-c2cc(O)ccc2Cl)cc2nnc(Nc3ccc(OCCN4CCCC4)cc3)nc12 came out in this test?
0 (no)

Hi, do you know how CCn1c(=O)c(-c2cc[nH]n2)cc2c(C)nc(N)nc21 came out in this test?
0 (no)

---

target: Dual specificity mitogen-activated protein kinase kinase 2 (Homo sapiens, UniProt P36507); also: in the data inactive means no Kd found up to 30 µM
Sequence (P36507 whole entry): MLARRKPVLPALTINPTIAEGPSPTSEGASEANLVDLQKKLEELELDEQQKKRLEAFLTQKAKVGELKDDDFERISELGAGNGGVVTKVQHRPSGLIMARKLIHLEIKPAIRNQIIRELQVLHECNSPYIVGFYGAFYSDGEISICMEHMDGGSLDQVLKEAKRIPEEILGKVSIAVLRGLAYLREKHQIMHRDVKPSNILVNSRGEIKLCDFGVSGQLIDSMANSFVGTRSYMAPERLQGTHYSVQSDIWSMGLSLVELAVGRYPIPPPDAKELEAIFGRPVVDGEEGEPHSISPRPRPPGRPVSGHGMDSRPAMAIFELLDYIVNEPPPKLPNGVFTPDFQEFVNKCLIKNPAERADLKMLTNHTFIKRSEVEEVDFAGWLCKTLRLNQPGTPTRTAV
Activity calls are given as the source filed them.
Thanks in advance; please answer with one of these: active, inactive

Here are 5 compounds together with their reported answers.
O=C(c1ccc(F)c(F)c1Nc1ccc(I)cc1F)N1CC(O)([C@@H]2CCCCN2)C1 = active
COc1cc(CCc2cc(NC(=O)c3ccc(N4C[C@@H](C)N[C@@H](C)C4)cc3)n[nH]2)cc(OC)c1 = inactive
CN1CC[C@@H](c2c(O)cc(O)c3c(=O)cc(-c4ccccc4Cl)oc23)[C@@H]1CO = inactive
Cc1nc(N)sc1-c1ccnc(Nc2ccc(N3CCOCC3)cc2)n1 = inactive
CC[C@@H]1C(=O)N(C)c2cnc(Nc3ccc(C(=O)N[C@H]4CC[C@H](N5CCN(CC6CC6)CC5)CC4)cc3OC)nc2N1C(C)C = inactive

--- query ---
Hi, do you know how CN1N=C(N)c2cn([C@@H]3O[C@H](COP(=O)(O)O)[C@@H](O)[C@H]3O)c3ncnc1c23 [TRICIRIBINE PHOSPHATE] came out in this test?
inactive

---

target: Mitogen-activated protein kinase 9 (Homo sapiens, UniProt P45984); also: in the data inactive means no Kd found up to 30 µM
Sequence (P45984 whole entry): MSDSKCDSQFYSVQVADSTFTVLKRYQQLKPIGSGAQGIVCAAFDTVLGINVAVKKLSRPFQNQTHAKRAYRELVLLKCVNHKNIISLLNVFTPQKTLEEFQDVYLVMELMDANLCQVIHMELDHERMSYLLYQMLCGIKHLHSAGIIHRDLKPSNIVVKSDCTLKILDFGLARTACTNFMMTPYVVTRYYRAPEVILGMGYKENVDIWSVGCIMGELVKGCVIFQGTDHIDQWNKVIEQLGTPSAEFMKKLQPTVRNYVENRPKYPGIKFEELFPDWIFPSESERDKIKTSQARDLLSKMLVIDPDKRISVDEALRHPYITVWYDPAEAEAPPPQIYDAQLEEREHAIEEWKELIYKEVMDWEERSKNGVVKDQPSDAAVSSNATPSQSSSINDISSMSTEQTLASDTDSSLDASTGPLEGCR
Calls of active or inactive are those of the source.
Thanks in advance; please answer with one of these: active, inactive

CCCS(=O)(=O)Nc1ccc(F)c(C(=O)c2c[nH]c3ncc(-c4ccc(Cl)cc4)cc23)c1F = inactive
Cc1ccc(-n2nc(C(C)(C)C)cc2NC(=O)NCc2cc(F)ccc2Oc2ccc3c(cnn3CCO)c2)cc1 = active
COC(=O)[C@@]1(O)C[C@H]2O[C@]1(C)n1c3ccccc3c3c4c(c5c6ccccc6n2c5c31)C(=O)NC4 [K-252A] = active
Cn1cc(-c2ccc(F)c(C(F)(F)F)c2)nc1C1CCN(c2ncnc3[nH]ncc23)CC1 = inactive
Cc1c(F)cc(C(=O)NC2CC2)cc1-c1ccc(C(=O)NCC(C)(C)C)cn1 = inactive

Hi, do you know how CN1CCC(COc2cnc(-c3cccc(Cn4nc(-c5cccc(C#N)c5)ccc4=O)c3)nc2)CC1 came out in this test?
inactive

Hi, do you know how C[C@@H](c1ccc2nccn2c1)n1nnc2ncc(-c3cnn(C)c3)nc21 came out in this test?
inactive

Hi, do you know how O=C1NC(=O)/C(=C/c2ccc3nccc(-c4ccncc4)c3c2)S1 came out in this test?
inactive

Hi, do you know how Cc1cc(-c2cc(O)ccc2Cl)cc2nnc(Nc3ccc(OCCN4CCCC4)cc3)nc12 came out in this test?
inactive

Hi, do you know how CC(=O)Nc1cccc(-n2c(=O)n(C3CC3)c(=O)c3c(Nc4ccc(I)cc4F)n(C)c(=O)c(C)c32)c1 came out in this test?
inactive

Hi, do you know how Cc1cc2c(F)c(Oc3ncnn4cc(OC[C@@H](C)OC(=O)[C@H](C)N)c(C)c34)ccc2[nH]1 [BRIVANIB ALANINATE] came out in this test?
inactive

Hi, do you know how Cn1ncc(Cl)c1-c1cc(C(=O)N[C@H](CN)Cc2cccc(F)c2)sc1Cl came out in this test?
inactive

Hi, do you know how CN1N=C(N)c2cn([C@@H]3O[C@H](COP(=O)(O)O)[C@@H](O)[C@H]3O)c3ncnc1c23 [TRICIRIBINE PHOSPHATE] came out in this test?
inactive

---

molecular target: Activin receptor type-1 (Homo sapiens, UniProt Q04771); also: in the data inactive means no Kd found up to 30 µM
Sequence (Q04771 whole entry): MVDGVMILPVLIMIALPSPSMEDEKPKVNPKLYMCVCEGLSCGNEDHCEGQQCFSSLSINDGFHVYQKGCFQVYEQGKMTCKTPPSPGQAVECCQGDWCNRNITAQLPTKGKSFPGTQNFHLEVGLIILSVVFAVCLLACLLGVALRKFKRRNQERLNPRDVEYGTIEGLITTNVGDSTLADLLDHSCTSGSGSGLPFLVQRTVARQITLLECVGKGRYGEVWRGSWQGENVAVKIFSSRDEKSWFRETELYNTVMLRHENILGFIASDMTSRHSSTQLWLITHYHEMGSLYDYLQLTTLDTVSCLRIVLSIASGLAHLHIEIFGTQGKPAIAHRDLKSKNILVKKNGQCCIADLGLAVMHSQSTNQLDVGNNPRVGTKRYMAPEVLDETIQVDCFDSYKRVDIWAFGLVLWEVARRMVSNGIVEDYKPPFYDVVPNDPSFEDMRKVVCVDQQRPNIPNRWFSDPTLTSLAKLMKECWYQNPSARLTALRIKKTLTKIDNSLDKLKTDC
Active and inactive are the calls of the source.
Thanks in advance; please answer with one of these: active, inactive

Here are 4 compounds together with their reported answers.
Cc1cc([C@@H](C)Nc2ccccc2C(=O)O)c2nc(N3CCOCC3)cc(=O)n2c1 = inactive
CNC(=O)c1ccc(C)c(-n2c(C)cc(OCc3ccc(F)cc3F)c(Br)c2=O)c1 = inactive
COc1cc(CCc2cc(NC(=O)c3ccc(N4C[C@@H](C)N[C@@H](C)C4)cc3)n[nH]2)cc(OC)c1 = inactive
COc1cc(OC)c(/C=C/S(=O)(=O)Cc2ccc(OC)c(NCC(=O)O)c2)c(OC)c1 = inactive

Hi, do you know how N[C@@H]1CCCN(c2c(/C=C3\SC(=O)NC3=O)cccc2-c2ccccc2)C1 came out in this test?
inactive

Hi, do you know how Cc1nc(N)sc1-c1ccnc(Nc2ccc(N3CCOCC3)cc2)n1 came out in this test?
active

Hi, do you know how CCS(=O)(=O)N1CC(CC#N)(n2cc(-c3ncnc4[nH]ccc34)cn2)C1 came out in this test?
inactive

Hi, do you know how COC(=O)[C@@]1(O)C[C@H]2O[C@]1(C)n1c3ccccc3c3c4c(c5c6ccccc6n2c5c31)C(=O)NC4 [K-252A] came out in this test?
inactive

Hi, do you know how O=C(Nc1ccc(-c2ccnc(Nc3ccc(N4CCOCC4)cc3)n2)cc1)C1CCCN1 (stereo not drawn) came out in this test?
inactive

Hi, do you know how Cn1ncc(Cl)c1-c1cc(C(=O)N[C@H](CN)Cc2cccc(F)c2)sc1Cl came out in this test?
inactive

Hi, do you know how Cc1cc(-c2cc(O)ccc2Cl)cc2nnc(Nc3ccc(OCCN4CCCC4)cc3)nc12 came out in this test?
inactive

Hi, do you know how Cc1c(F)cc(C(=O)NC2CC2)cc1-c1ccc(C(=O)NCC(C)(C)C)cn1 came out in this test?
inactive

---

target: Serine/threonine-protein kinase Nek9 (Homo sapiens, UniProt Q8TD19); also: in the data inactive means no Kd found up to 30 µM
Sequence (Q8TD19 whole entry): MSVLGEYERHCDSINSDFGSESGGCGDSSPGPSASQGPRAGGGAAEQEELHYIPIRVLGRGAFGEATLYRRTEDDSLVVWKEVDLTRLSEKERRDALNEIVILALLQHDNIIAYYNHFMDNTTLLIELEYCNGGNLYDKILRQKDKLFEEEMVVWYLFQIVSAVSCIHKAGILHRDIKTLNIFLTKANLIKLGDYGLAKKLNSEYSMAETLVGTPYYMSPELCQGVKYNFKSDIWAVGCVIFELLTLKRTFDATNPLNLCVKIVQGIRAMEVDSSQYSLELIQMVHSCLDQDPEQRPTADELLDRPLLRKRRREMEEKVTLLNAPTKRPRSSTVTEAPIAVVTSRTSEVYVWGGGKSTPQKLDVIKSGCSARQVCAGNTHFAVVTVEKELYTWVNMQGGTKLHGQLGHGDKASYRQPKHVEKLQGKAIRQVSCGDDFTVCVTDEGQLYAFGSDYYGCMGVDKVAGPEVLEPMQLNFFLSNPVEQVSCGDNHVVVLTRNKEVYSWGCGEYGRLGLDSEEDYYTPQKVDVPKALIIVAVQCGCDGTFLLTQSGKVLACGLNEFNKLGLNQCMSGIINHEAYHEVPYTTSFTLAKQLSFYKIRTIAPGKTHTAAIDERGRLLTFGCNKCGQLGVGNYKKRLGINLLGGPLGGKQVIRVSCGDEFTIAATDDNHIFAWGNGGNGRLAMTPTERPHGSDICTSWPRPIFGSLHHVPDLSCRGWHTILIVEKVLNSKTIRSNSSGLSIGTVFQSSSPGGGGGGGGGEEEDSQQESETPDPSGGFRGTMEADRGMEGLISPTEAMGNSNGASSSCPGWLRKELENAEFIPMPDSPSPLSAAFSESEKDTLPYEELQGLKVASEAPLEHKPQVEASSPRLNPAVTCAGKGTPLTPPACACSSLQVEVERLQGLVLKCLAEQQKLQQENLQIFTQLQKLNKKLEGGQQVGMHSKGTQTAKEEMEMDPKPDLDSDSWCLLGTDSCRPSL
Activity calls are given as the source filed them.
Thanks in advance; please answer with one of these: T (active), F (inactive)

Hi, do you know how CNC(=O)c1cc(Oc2ccc(NC(=O)Nc3ccc(Cl)c(C(F)(F)F)c3)c(F)c2)ccn1 came out in this test?
F

Hi, do you know how OCCn1cc(-c2cnc3nnn(Cc4ccc5ncccc5c4)c3n2)cn1 came out in this test?
F

---

target: Dual specificity tyrosine-phosphorylation-regulated kinase 1A (Homo sapiens, UniProt Q13627); also: in the data inactive means no Kd found up to 30 µM
Calls of active or inactive are those of the source.
Thanks in advance; please answer with one of these: active, inactive

Here are 3 molecules together with their reported answers.
CN1N=C(N)c2cn([C@@H]3O[C@H](COP(=O)(O)O)[C@@H](O)[C@H]3O)c3ncnc1c23 [TRICIRIBINE PHOSPHATE] = inactive
Cc1c(F)cc(C(=O)NC2CC2)cc1-c1ccc(C(=O)NCC(C)(C)C)cn1 = inactive
CNC(=O)c1ccc(C)c(-n2c(C)cc(OCc3ccc(F)cc3F)c(Br)c2=O)c1 = inactive

Hi, do you know how O=C1NC(=O)/C(=C/c2ccc3nccc(-c4ccncc4)c3c2)S1 came out in this test?
active

Hi, do you know how CN1CCC(CNc2ccc3ncc(-c4cccc(OC(F)(F)F)c4)n3n2)CC1 came out in this test?
inactive

Hi, do you know how COc1cc2nccc(Oc3ccc(NC(=O)Nc4cc(C)on4)c(Cl)c3)c2cc1OC came out in this test?
inactive
